# METHOD SUMMARY: PK parameters in male ICR mice
# Assay type: in vivo
# CONDITION INFO: mouse, in vivo, IV 2 mg/kg, read-out: Cl-obs
PARAMETER MEASURED: clearance (mL/min/kg)
Expressed in mL/min/kg, but write only the number.

// clearance lookup, compound = CC1(C)[C@H](NC(=O)c2ccc(N3CCN(C4CN(c5ccc6c(c5)C(=O)N(C5CCC(=O)NC5=O)C6=O)C4)CC3)cc2)C(C)(C)[C@H]1Oc1ccc(C#N)c(Cl)c1 (stereo partly shown) [Cpd. No. 113] , result: 1.7

###

# TARGET ENTITY: AR protein (Homo sapiens)
# Construct: endogenous in cells; host or cells: VCaP
# Sequence (P10275 whole entry): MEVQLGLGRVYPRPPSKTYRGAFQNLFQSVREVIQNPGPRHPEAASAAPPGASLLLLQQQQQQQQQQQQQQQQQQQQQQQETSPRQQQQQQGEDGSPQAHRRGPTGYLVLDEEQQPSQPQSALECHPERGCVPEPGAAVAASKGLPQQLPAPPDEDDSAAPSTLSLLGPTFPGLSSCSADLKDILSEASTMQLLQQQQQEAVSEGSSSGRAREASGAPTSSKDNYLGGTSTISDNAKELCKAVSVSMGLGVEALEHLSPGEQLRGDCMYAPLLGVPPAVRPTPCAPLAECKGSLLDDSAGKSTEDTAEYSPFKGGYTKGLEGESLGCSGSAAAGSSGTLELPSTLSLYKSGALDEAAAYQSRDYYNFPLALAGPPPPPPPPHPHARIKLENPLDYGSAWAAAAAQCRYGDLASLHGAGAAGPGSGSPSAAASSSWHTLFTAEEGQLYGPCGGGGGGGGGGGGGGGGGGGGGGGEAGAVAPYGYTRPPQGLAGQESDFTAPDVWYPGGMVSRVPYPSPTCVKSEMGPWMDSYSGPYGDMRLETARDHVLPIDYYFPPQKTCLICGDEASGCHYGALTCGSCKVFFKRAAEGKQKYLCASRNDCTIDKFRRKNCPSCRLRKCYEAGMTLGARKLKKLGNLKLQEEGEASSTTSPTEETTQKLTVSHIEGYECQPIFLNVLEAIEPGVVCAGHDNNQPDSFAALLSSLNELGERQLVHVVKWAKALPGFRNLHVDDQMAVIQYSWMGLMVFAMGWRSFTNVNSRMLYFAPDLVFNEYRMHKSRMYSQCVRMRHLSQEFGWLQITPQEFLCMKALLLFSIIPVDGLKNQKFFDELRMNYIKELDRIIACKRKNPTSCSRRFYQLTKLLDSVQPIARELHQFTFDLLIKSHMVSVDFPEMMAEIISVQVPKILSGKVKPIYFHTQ
# METHOD SUMMARY: Western blotting of AR protein degradation in VCaP cells
# Format: cell-based
# CONDITION INFO: 0.001 μM
Label no (0) if % AR protein degradation in VCaP Cells falls below 40%; label yes (1) in every other case.

Reference set, count: 4
N#Cc1ccc(O[C@H]2CC[C@H](NC(=O)c3ccc(N4CCC(N5CCN(c6ccc7c(c6)C(=O)N(C6CCC(=O)NC6=O)C7=O)CC5)CC4)cc3)CC2)cc1Cl (some centres unmarked)    yes (1)
N#Cc1ccc(O[C@H]2CC[C@H](NC(=O)c3ccc(N4CCN(CCCCNc5ccc6c(c5)C(=O)N(C5CCC(=O)NC5=O)C6=O)CC4)cc3)CC2)cc1Cl (some centres unmarked)    no (0)
CN(c1ccc(C#N)c(Cl)c1)[C@H]1CC[C@H](NC(=O)c2ccc(N3CCN(C4CCN(c5ccc6c(c5)C(=O)N(C5CCC(=O)NC5=O)C6=O)CC4)CC3)cc2)CC1 (some centres unmarked)    yes (1)
N#Cc1ccc(O[C@H]2CC[C@H](NC(=O)c3ccc(N4CCN(CCCCCNc5ccc6c(c5)C(=O)N(C5CCC(=O)NC5=O)C6=O)CC4)cc3)CC2)cc1Cl (some centres unmarked)    no (0)

Below: the item to evaluate.
INPUT: Check the entry N#Cc1ccc(O[C@H]2CC[C@H](NC(=O)c3ccc(NCCCCNc4ccc5c(c4)C(=O)N(C4CCC(=O)NC4=O)C5=O)cc3)CC2)cc1Cl (some centres unmarked) : does % AR protein degradation in VCaP Cells equal or exceed 40%?
OUTPUT: yes (1)
